- System: SK-OV-3
- TEST_METHOD_NOTES: NCI tumour cell line growth inhibition, 48 h
The source made the active and inactive calls. Rule as the data show it: active = GI50 up to about 1.1 µM and inactive = higher.
Below, each of the compounds is paired with its reported GI50 value.

Illustrative cases are given below, each with its answer.
1. c1cc(C2N3CCCN2CC3)ccn1 (configuration not stated)	> 100 µM (inactive)
2. O=C(O)Cc1cccc2c1OC(c1ccccc1)C(C(=O)c1ccccc1)C2=O (configuration not stated)	2.07 µM (inactive)
3. O=[N+]([O-])c1ccc(Cl)c(C2SCc3nc4ccccc4n32)c1 (configuration not stated)	36.6 µM (inactive)
4. COc1c(Cl)cc(Cl)cc1S(=O)O	> 100 µM (inactive)
5. O=C1OC(c2ccccc2)N/C1=C\c1ccc2c(c1)OCO2 (configuration not stated)	> 100 µM (inactive)

Could you tell me which GI50 is on file for c1ccc2sc(C3(N4CCCCC4)CCCCCC3)cc2c1 ?
25.3 µM (inactive)

Follow-up item: N#CC12C(=O)N=C(N)C1(C#N)C(c1ccco1)NC1=C2CCCC1 (configuration not stated)
> 100 µM (inactive)

Can you handle CC(=O)NS(=O)(=O)c1ccc(NC(=O)c2c3ccccc3nc3ccccc23)cc1 next?
> 100 µM (inactive)

Continue with CN(C)/N=N/c1nc2c(c(=O)n(C)c(=O)n2C)n1C
> 100 µM (inactive)

// next record Cc1ccc2nc(CN3CCCC(O)C3)cc(=O)n2c1 (configuration not stated)
> 100 µM (inactive)

And the next one, CNC(=S)N/N=C(\C)c1cc(OC)ccc1O ?
> 100 µM (inactive)

Continue with CC(=O)Nc1ccc(/C=C/C(=O)c2sc(-c3nc(C)c(C(=O)/C=C/c4ccc(NC(C)=O)cc4)s3)nc2C)cc1
> 100 µM (inactive)

====

- Tested on: U-251
- TEST_METHOD_NOTES: NCI tumour cell line growth inhibition, 48 h
Active and inactive are the calls of the source. Rule as the data show it: active = GI50 up to about 1.1 µM and inactive = higher.
MEASURED_METRIC: GI50

Previously resolved entries follow.
1. O=C1C2ON3c4ccccc4C(=O)C3(c3ccccc3)C2C(=O)N1c1ccccc1 (stereo not given)	> 100 µM (inactive)
2. Cc1ccc(NC(=O)/C(=N/NC(=O)C[N+](C)(C)C)c2nc3ccccc3nc2O)cc1	27.4 µM (inactive)

Which GI50 reading was recorded for the compound Cc1cccc(C(C)(C)C)c1NC(=O)/C(Cc1nc2ccc([N+](=O)[O-])cc2nc1O)=N\NC(=O)C[N+](C)(C)C ?
> 100 µM (inactive)

Same question, Nc1nc(=O)n([C@@H]2CC[C@H](CO)O2)cc1F this time
> 100 µM (inactive)

Can you check N#Cc1c(N)nc2c(c1-c1ccc(Br)cc1)CSc1ccccc1-2 next?
34.4 µM (inactive)

====

- Tested on: HOP-92
- TEST_METHOD_NOTES: NCI tumour cell line growth inhibition, 48 h
Activity calls are given as the source filed them. No stated cut-off is given here; in the data, active = GI50 up to about 1.1 µM and inactive = higher.
MEASURED_METRIC: GI50

Solved entries (count: 5):
1. COc1cc(/C=C2\N=C(c3ccccc3)N(c3ccc(C(=O)c4ccccc4)cc3N3C(=O)/C(=C/c4ccc(O)c(OC)c4)N=C3c3ccccc3)C2=O)ccc1O	22.7 µM (inactive)
2. O=C(NNS(=O)(=O)c1ccccc1)c1csc(NC(=S)NC2CCCCC2)n1	55.2 µM (inactive)
3. C[C@@H]1C(=O)CC2C(C)(C)CCC[C@]2(C)[C@@]12CC[C@]1(C=COC1)O2 (stereo not given in full)	13.8 µM (inactive)
4. N#Cc1c(N)nc2c(c1-c1ccc(Br)cc1)CSc1ccccc1-2	9.02 µM (inactive)
5. NC(=O)c1ncn2c1NC(=O)CC2	> 100 µM (inactive)

Which GI50 is listed for Cc1cc2c(cc1C)C(=O)C1(C2)Cc2cc3c(cc2C1=O)CCC3 (stereo not given) ?
> 100 µM (inactive)

====

- Tested on: A498
- TEST_METHOD_NOTES: NCI tumour cell line growth inhibition, 48 h
Calls of active or inactive are those of the source. No stated cut-off is given here; in the data, active = GI50 up to about 1.1 µM and inactive = higher.
Item-by-item account of GI50

Record excerpt, results attached:
1. NC(=O)c1ncn2c1NC(=O)CC2	> 100 µM (inactive)
2. O=C(CC(O)(C(F)(F)F)C(F)(F)F)c1cc(CC(=O)C(O)(C(F)(F)F)C(F)(F)F)cc(CC(=O)C(O)(C(F)(F)F)C(F)(F)F)c1	1.88 µM (inactive)
3. c1ccc(Nc2nnc(CSc3nc(-c4ccccc4)c(-c4ccccc4)[nH]3)s2)cc1	26.5 µM (inactive)
4. O=C1c2ccccc2C(=O)N1n1c(Cc2ccc([N+](=O)[O-])cc2)n[nH]c1=O	> 100 µM (inactive)

Query: GI50; subject: On1c(-c2ccccc2)c(-c2ccccc2N2CCCC2)c2ccccc21
> 100 µM (inactive)

Note, next up: COc1cc(-c2[nH]ccc2Cl)oc1C1=C2N=C3C=C2C(C(C)C)C1CCCCCCCC3 (stereo not drawn)
2.16 µM (inactive)

Check CCOC(=O)c1c(-c2ccc(OC)cc2)c(C#N)c(=S)n(C2OC(CO)C(O)C(O)C2O)c1C (stereo not drawn) too.
> 100 µM (inactive)

Consider next the compound N#Cc1[nH]c(=S)[nH]c1N in the same way.
> 100 µM (inactive)

====

- Tested on: DMS-273
- TEST_METHOD_NOTES: NCI tumour cell line growth inhibition, 48 h
Active and inactive are the calls of the source. Cut-off read from the data, not from the text of the source: active = GI50 up to about 1.1 µM and inactive = higher.
Hello, when you answer, please use one of the following outcomes: active, inactive

1. O=C(CC1(O)C(=O)Nc2ccccc21)c1ccc(F)cc1 (stereo unspecified)	inactive
2. COC(=O)C1CC/C(=N/c2ccc(C)cc2C)N1 (stereo unspecified)	inactive
3. Nc1ncn(C2C=C(CO)C(O)C2O)c(=O)n1 (stereo unspecified)	inactive
4. O=c1ccn([C@H]2CSC[C@@H](CO)C2)c(=O)[nH]1	inactive
5. CC(=O)NNc1nc(C)c(C(=O)/C=C/c2ccc(Cl)c(Cl)c2)s1	inactive

Dear colleague, could you share the recorded outcome for CN(Cc1cnc2nc(N)nc(N)c2n1)c1ccc(C(=O)N[C@@H](CCC(=O)O)C(=O)O)cc1 [METHOTREXATE] when you have a moment?
active

Entry CC1=C(C(=O)Nc2ccc([N+](=O)[O-])cc2)C(c2ccc3c(c2)OCO3)C(C(=O)Nc2ccc([N+](=O)[O-])cc2)=C(C)N1 please
inactive

Note, next up: O=c1[nH]c(-c2ccccc2)nc2cc(Cl)ccc12
inactive

Same for CC(C)c1cc(OCC(O)CO)cc(C(C)C)c1 (stereo unspecified)
inactive

Then NC(=S)N/N=C1\CC(c2ccccc2)Nc2ccccc21 (stereo unspecified) ?
inactive

Record: COc1ccc(Cc2nc3ccccc3s2)cc1OC
inactive

====

- Tested on: PC-3
- TEST_METHOD_NOTES: NCI tumour cell line growth inhibition, 48 h
The source made the active and inactive calls. Rule as the data show it: active = GI50 up to about 1.1 µM and inactive = higher.
Hi! Could you answer with just one of these? TRUE for active, FALSE for inactive

Kindly provide the recorded test outcome for the following molecule: CC(=O)O[C@@H]1C2=C(C3=C([O-])C4=CC=CC(=O)C4C(=O)C3=C2[N+]#N)[C@H](OC(C)=O)[C@@H](OC(C)=O)[C@]1(C)O (stereo not given in full)
TRUE

Next molecule: CC(=O)OCCOCn1c2c(c(=O)[nH]c1=O)CCC2
FALSE

Then Nc1nc(I)nc2c1ncn2C1OC(COS(N)(=O)=O)C(O)C1O (stereo not given) ?
TRUE

Please answer likewise for O=C1OC(c2ccc(Cl)cc2)=N/C1=C\c1ccccc1
FALSE

Similarly, CCOP(=O)(C=C=C1CCC2[C@@H]3CCc4cc(OC)ccc4C3CC[C@]12C)OCC (stereo not given in full) ?
FALSE

====

- Tested on: Hs-578T
- TEST_METHOD_NOTES: NCI tumour cell line growth inhibition, 48 h
The source made the active and inactive calls. No stated cut-off is given here; in the data, active = GI50 up to about 1.1 µM and inactive = higher.
Output constraint: value belongs to yes (1) = active, no (0) = inactive

Observe how each entry below is paired with its result.
1) COC(=O)c1cc(C(=CCC[C@H]2CC[C@@]3(C)C(CCC4C3CC[C@@]3(C)C4CC[C@@H]3C(C)CCCC(C)C)C2)c2cc(Cl)c(OC(=O)c3ccccc3)c(C(=O)OC)c2)cc(Cl)c1OC(=O)c1ccccc1 (some centres not stated)	no (0)
2) CCCCc1ccc(Nc2nc(Cl)c3ccn(C4CC(Oc5ccc(C)cc5)C(COc5ccc(C)cc5)O4)c3n2)cc1 (configuration not stated)	no (0)
3) Cc1cc(NCc2ccccc2)c2ccccc2[n+]1CCCCCCCCCC[n+]1c(C)cc(NCc2ccccc2)c2ccccc21.[O-][Cl+3]([O-])([O-])[O-].[O-][Cl+3]([O-])([O-])[O-]	yes (1)
4) O=C1NC(=S)NC(=O)C1=C/C=C/c1ccc([N+](=O)[O-])cc1	no (0)
5) CO[C@@]12[C@H](COC(N)=O)C3=C(C(=O)C(C)=C(N)C3=O)N1C[C@H]1[C@@H]2N1C (some centres not stated)	no (0)
6) CCOC(=O)c1cc(-c2ccn(C(C)=O)c2)c(-c2cc(C)co2)[nH]1	no (0)

Turning now to a further record.
Recorded call for c1cc(-c2cscc2-c2ccsc2)cs1 ?
no (0)
